- Test system: Mycolicibacterium smegmatis
- assay_text: Antibacterial activity against nonpigmented rapidly growing Mycobacterium smegmatis after 3 days by broth microdilution method
- Assay type: functional
- cond: 72 h
Recorded MIC for the following compounds

q: Value lookup for MIC; key = `CC[C@H]1OC(=O)[C@H](C)[C@@H](O[C@H]2C[C@@](C)(OC)[C@@H](O)[C@H](C)O2)[C@H](C)[C@@H](O[C@@H]2O[C@H](C)C[C@H](N(C)C)[C@H]2O)[C@](C)(OC)C[C@@H](C)C(=O)[C@H](C)[C@@H](O)[C@]1(C)O`
a: ≤ 0.03 mg/L

q: Value lookup for MIC; key = `CN(C)c1cc(NC(=O)CNC(C)(C)C)c(O)c2c1C[C@H]1C[C@H]3[C@H](N(C)C)C(O)=C(C(N)=O)C(=O)[C@@]3(O)C(O)=C1C2=O`
a: ≤ 0.03 mg/L

q: Value lookup for MIC; key = `C[C@H]1c2cccc(O)c2C(=O)C2=C(O)[C@]3(O)C(=O)C(C(N)=O)=C(O)[C@@H](N(C)C)[C@@H]3[C@@H](O)[C@@H]21.O`
a: ≤ 0.03 mg/L
